Source of measurements: patent US10988465B2

Experimental protocol: in vitro
Test context: human, Caco-2, pH 7.4

>  <Compound>
Cc1cccnc1[C@@H]1CCC[C@H](c2nc3cccc(N4CCN(C)C(C)C4)c3[nH]2)N1C (some centres unmarked) [I-53]

>  <Papp A→B at 90 min, 10 μM>
100 to 300 nm/s

$$$$
>  <Compound>
[2H]C([2H])([2H])N1CCN(c2cccc3nc([C@H]4CCC[C@@H](c5ncccc5C)N4C)[nH]c23)CC1 [I-111]

>  <Papp A→B at 90 min, 10 μM>
100 to 300 nm/s

$$$$
>  <Compound>
Cc1cccnc1[C@@H]1CCC[C@H](c2nc3ccccc3[nH]2)N1CCc1cn2ccccc2n1 [I-164]

>  <Papp A→B at 90 min, 10 μM>
1 to 100 nm/s

$$$$
>  <Compound>
CN1CCN(c2cccc3nc([C@H]4CCC[C@@H](c5nccc6occc56)N4C)[nH]c23)CC1 [I-92]

>  <Papp A→B at 90 min, 10 μM>
100 to 300 nm/s

$$$$
>  <Compound>
Cc1cccnc1[C@@H]1CCC[C@H](c2nccn2C2CCN(C3CC3)CC2)N1C [I-174]

>  <Papp A→B at 90 min, 10 μM>
100 to 300 nm/s

$$$$
>  <Compound>
CO[C@H]1C[C@H](c2nc3cccc(N4CCN(C)CC4)c3[nH]2)N(C)[C@H](c2ncccc2C)C1 [I-103]

>  <Papp A→B at 90 min, 10 μM>
100 to 300 nm/s

$$$$
>  <Compound>
Cc1cccnc1[C@@H]1CCC[C@H](c2nccn2C2CCNCC2)N1C [I-179]

>  <Papp A→B at 90 min, 10 μM>
1 to 100 nm/s

$$$$
>  <Compound>
CN1CCN(c2cccc3nc([C@H]4CCC[C@@H](c5ncccc5Br)N4C)[nH]c23)CC1 [I-28]

>  <Papp A→B at 90 min, 10 μM>
1 to 100 nm/s

$$$$
>  <Compound>
Cc1cccnc1[C@@H]1CCC[C@H](c2nc3ccccc3n2CCCN2CCOCC2)N1C [I-18]

>  <Papp A→B at 90 min, 10 μM>
100 to 300 nm/s

$$$$
>  <Compound>
CNCCCCn1c([C@H]2CCC[C@@H](c3ncccc3C)N2C)nc2ccccc21 [I-37]

>  <Papp A→B at 90 min, 10 μM>
1 to 100 nm/s

$$$$
>  <Compound>
Cc1cccnc1[C@@H]1CCC[C@H](c2nc3cccc(N4CCN(C)CC4)c3n2C)N1C [I-35]

>  <Papp A→B at 90 min, 10 μM>
1 to 100 nm/s

$$$$
>  <Compound>
CN1CCC(n2ccnc2[C@H]2CCC[C@@H](c3ncccc3Cl)N2C)CC1 [I-170]

>  <Papp A→B at 90 min, 10 μM>
100 to 300 nm/s

$$$$
>  <Compound>
Cc1cccnc1[C@@H]1CCC[C@H](c2nc3cccc(N4CCN(C)CC4)c3[nH]2)N1C (single isomer, unassigned) [I-3a]

>  <Papp A→B at 90 min, 10 μM>
1 to 100 nm/s

$$$$
>  <Compound>
Cc1cccnc1[C@@H]1CCC[C@H](c2nc3ccccc3[nH]2)N1CCc1ccccn1 [I-27]

>  <Papp A→B at 90 min, 10 μM>
100 to 300 nm/s

$$$$
>  <Compound>
Cc1cccnc1[C@@H]1CCC[C@H](c2nc3ccccc3n2CCCCN(C)C)N1C [I-38]

>  <Papp A→B at 90 min, 10 μM>
1 to 100 nm/s

$$$$
>  <Compound>
Cc1cccnc1[C@@H]1CCC[C@H](c2nc3cccc(N4CCN(c5ccccn5)CC4)c3[nH]2)N1 [I-162]

>  <Papp A→B at 90 min, 10 μM>
100 to 300 nm/s

$$$$
>  <Compound>
CN1CCC(n2c([C@H]3CCC[C@@H](c4ccccn4)N3)nc3ccccc32)CC1 [I-154]

>  <Papp A→B at 90 min, 10 μM>
100 to 300 nm/s

$$$$
